So I've got a bunch of sequences here, and I need their switch fluorescence ratio values.
test system: ATP; test: switch fluorescence ratio, 500 uM ATP over buffer (Cy3 cluster intensity, sum of 5 cycles each) (fold (ratio)); higher = stronger signal-on switching upon ATP binding; sequences stand for … in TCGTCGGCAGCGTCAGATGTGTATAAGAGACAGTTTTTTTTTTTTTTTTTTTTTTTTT…TC; conditions: aptamer strand: ATP DNA aptamer (quencher-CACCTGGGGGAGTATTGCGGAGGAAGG + anchor), 100 nM annealed; ATP concentration: 500 uM;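 further: ATP exposure 15 min at 22 °C before imaging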
Answers are plain numbers.

# count of solved cases: 3
[
  {
    "Primary Sequence": "CAGGAATAGC",
    "Result Number": 1.25
  },
  {
    "Primary Sequence": "GGGGGCTTGT",
    "Result Number": 1
  },
  {
    "Primary Sequence": "ATTTTAGAGT",
    "Result Number": 1.02
  }
]

Provide the reported switch fluorescence ratio of each entry below, same order.
1. AGGGATTAGC
2. TGGGGGTGCT
3. CATTCGTCGC
4. GGCAGTAGTG
5. ATGAGGGGAG
6. ATTAAGGCCC
7. TGAATTTCTT

1: 0.988; 2: 1; 3: 1.12; 4: 1; 5: 0.997; 6: 0.988; 7: 0.986

Dear colleague, could you please provide switch fluorescence ratio for the sequences listed below?
1. GGGATTTTGG
2. AATGAATGAG
3. ACGATCTCCC
4. GGATCATCGC
5. CGGCGATCGC

1. 0.973
2. 0.971
3. 1.31
4. 1.03
5. 1.04

For each entry beneath this line, provide reported switch fluorescence ratio.
1. GGGACCTGCT
2. AGTGCGAGAG

0.951
1.01
